Biological target: human RXFP1 (Homo sapiens)
Sequence (Q9HBX9 whole entry): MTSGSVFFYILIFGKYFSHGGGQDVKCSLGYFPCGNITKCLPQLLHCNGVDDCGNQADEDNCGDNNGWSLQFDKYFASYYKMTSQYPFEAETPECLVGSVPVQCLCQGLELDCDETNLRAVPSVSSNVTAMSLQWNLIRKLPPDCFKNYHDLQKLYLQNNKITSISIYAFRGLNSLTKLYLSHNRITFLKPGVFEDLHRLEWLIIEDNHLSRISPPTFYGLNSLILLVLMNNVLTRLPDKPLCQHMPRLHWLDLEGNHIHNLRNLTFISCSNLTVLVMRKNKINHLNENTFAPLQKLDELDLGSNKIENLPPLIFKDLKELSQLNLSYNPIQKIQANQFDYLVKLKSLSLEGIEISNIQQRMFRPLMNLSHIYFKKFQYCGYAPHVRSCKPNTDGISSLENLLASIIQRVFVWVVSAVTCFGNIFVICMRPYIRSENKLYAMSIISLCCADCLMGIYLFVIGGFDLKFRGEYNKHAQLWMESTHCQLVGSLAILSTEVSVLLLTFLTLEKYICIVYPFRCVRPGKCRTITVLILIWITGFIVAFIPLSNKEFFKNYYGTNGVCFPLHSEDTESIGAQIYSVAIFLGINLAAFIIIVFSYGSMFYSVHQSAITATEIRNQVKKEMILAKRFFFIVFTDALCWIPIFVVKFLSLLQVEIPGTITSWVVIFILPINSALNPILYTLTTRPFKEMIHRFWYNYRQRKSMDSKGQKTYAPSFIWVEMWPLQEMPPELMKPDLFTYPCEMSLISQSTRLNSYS
Test: RXFP1 Hu cAMP (Test A)
Type: cell-based
Set-up: expressed in transfected cells; host or cells: Jump-In T-REx CHO-K1 cells (ThermoFisher), induced with 10 ng/ml doxycycline for 24 h
Conditions: RXFP1 Hu cAMP
quantity: Test A Sinf (%)
Your answer is read as %, so omit the unit and give the number.

# input Give human RXFP1 (Homo sapiens) Test A Sinf for the following compound: COc1cc(F)c(O[C@H]2CC[C@@H](S(N)(=O)=O)CC2)cc1C(=O)N[C@@H]1[C@@H]2CC[C@@H](C2)[C@@H]1C(=O)Nc1cccc(S(=O)(=O)C(F)(F)F)c1
# output 111

# input Give human RXFP1 (Homo sapiens) Test A Sinf for the following compound: COc1cc(F)c(-c2cccc(CC(=O)O)c2)cc1C(=O)N[C@H]1[C@@H](C(=O)Nc2cccc(S(=O)(=O)C(F)(F)F)c2)[C@@H]2C=C[C@H]1C2 (racemic)
# output 170

# input Give human RXFP1 (Homo sapiens) Test A Sinf for the following compound: COc1cc(F)c(Cc2cnn(CC(=O)O)c2)cc1C(=O)N[C@@H]1[C@H]2CC[C@H](C2)[C@@H]1C(=O)Nc1cccc(S(=O)(=O)C(F)(F)F)c1
# output 109

# input Give human RXFP1 (Homo sapiens) Test A Sinf for the following compound: COc1cc(C(F)(F)F)c(O[C@H]2CC[C@@](C)(C(=O)O)CC2)cc1C(=O)N[C@@H]1[C@H]2CC[C@H](C2)[C@@H]1C(=O)NCC1(C)CCC1
# output 96

# input Give human RXFP1 (Homo sapiens) Test A Sinf for the following compound: COc1cc(C#N)c(O[C@H]2CC[C@@](C)(C(=O)O)CC2)cc1C(=O)N[C@@H]1[C@H]2CC[C@H](C2)[C@@H]1C(=O)NCC(C)(F)F
# output 97
